test: chemical genetic growth profiling, strain panel (AID 1159580);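 note: tested at 20 µM; growth read once vehicle control cultures reached saturation at 30 °C; 1 = growth at the plate median or of vehicle wells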; conditions: S. cerevisiae deletion strains, growth OD, locus YNL322C, strain KRE1, stronger effect = lower value
In all, about 5,500 compounds went through this assay and about 2,000 (36%) were called active. About 18% were inconclusive and are not listed. The list shows a part of the results.
So basically, if normalized growth comes in under 1 it's 1 (yes), and if it's 1 or more it's 0 (no).

O=[N+]([O-])c1ccc(N2CCCCC2)nc1N1CCCCC1    1 (yes)

Okay, next one:
Answer whether the compound `O=C(NNC(=S)Nc1cccc(Cl)c1)C1CC1` has normalized growth strictly less than 1 0 (no)

----------
assay: chemical genetic growth profiling, strain panel (AID 1159580); settings: S. cerevisiae deletion strains, growth OD, locus YNL153C, strain GIM3, stronger effect = lower value
In all, about 5,500 compounds went through this assay and about 2,000 (36%) were called active. Roughly 18% stayed inconclusive and do not appear here. Some of the results follow.
measure: normalized growth
Quick one: just the number, no unit, thanks!

Sample records with normalized growth:
C/C(=N/O)c1sc2nc(C(F)(F)F)nn2c1C    1
O=C(OCC(O)CO)c1ccccc1Nc1ccnc2cc(Cl)ccc12 (stereo unspecified)    0.976
NCCS(=O)(=O)O    1.04
CCCOc1ccccc1/C=N\NC(=S)Nc1cccc(F)c1    1
C[C@H](Cc1ccccc1)Nc1ncnc2c1ncn2[C@@H]1O[C@H](CO)[C@H](O)C1O (stereo partly specified)    1.22

Consider the additional molecule presented here.
# return recorded normalized growth for entry `CCN(CC)Cc1ccc(Nc2ccnc3cc(Cl)ccc23)cc1O` 0.987

----------
experiment: chemical genetic growth profiling, strain panel (AID 1159580); settings: S. cerevisiae deletion strains, growth OD, locus YPL241C, strain CIN2, stronger effect = lower value
Hit rate of the full screen: of about 5,500 compounds, about 2,000 (36%) were called active. Not shown: some 18% with an inconclusive outcome. The list shows a part of the results.
// NB: equality with 1 counts as False; only normalized growth strictly below is True

// below: answered compounds
CC[C@@]1(O)C[C@H](O[C@H]2C[C@H](N(C)C)[C@H](O)[C@H](C)O2)c2c(cc3c(c2O)C(=O)c2c(O)ccc(O)c2C3=O)[C@H]1C(=O)OC    True
N#CCCN(CC1CCCO1)C(=S)Nc1cc(C(F)(F)F)cc(C(F)(F)F)c1 (stereo unspecified)    True
CC(=O)c1c(O)c(C)c(O)c(Cc2c(O)c3c(c(C(=O)/C=C/c4ccccc4)c2O)OC(C)(C)C=C3)c1O    True
CSc1c(-c2ccccc2)c(N)nn1S(=O)(=O)c1ccccc1    True
CCC[C@H](N[C@@H](C)C(=O)N1[C@H](C(=O)O)C[C@@H]2CCCC[C@@H]21)C(=O)OCC    False

Here's the next entry for you.
Confirm or reject: normalized growth of CCCCCCCCCCCCCCCCCC(=O)NCC(COP(=O)([O-])OCC[N+](C)(C)C)OCC (stereo unspecified) lies strictly below 1 True

----------
# reported normalized growth; entries follow
assay: chemical genetic growth profiling, strain panel (AID 1159580); conditions: S. cerevisiae deletion strains, growth OD, locus YLR258W, strain gsy2, stronger effect = lower value
The whole screen tested about 5,500 compounds, of which about 2,000 (36%) were called active. Inconclusive results (about 18%) are left out. The list shows a part of the results.
No unit in the answer, please; the number alone is enough.

In the examples that follow, each entry is paired with its recorded normalized growth.
O=C1C(Cl)=C(Cl)C(=O)C(Cl)=C1Cl    0.978
O=C(Oc1cc(OC(=O)c2ccccc2)c2c(c1)O[C@H](c1ccc(OC(=O)c3ccccc3)c(OC(=O)c3ccccc3)c1)[C@@H](OC(=O)c1ccccc1)C2)c1ccccc1    0.993
O=C(O[C@@H]1Cc2c(O)cc(O)cc2O[C@@H]1c1cc(O)c(O)c(O)c1)c1cc(O)c(O)c(O)c1    0.898
O=C(O[C@@H]1Cc2c(O)cc(O)cc2O[C@@H]1c1ccc(O)c(O)c1)c1cc(O)c(O)c(O)c1    0.952
COC(=O)[C@@H]1OC(=O)C2OC23[C@@]1(C)CCC1[C@]2(C)C(C[C@H](O)[C@]13C)C(C)(C)[C@H](OC(C)=O)C[C@@H]2OC(C)=O (stereo partly drawn)    1.01
C[n+]1c2cc(N)ccc2cc2ccc(N)cc21    0.524
CC(=O)Oc1cc(OC(C)=O)c2c(c1)O[C@H](c1ccc(OC(C)=O)c(OC(C)=O)c1)[C@@H](OC(C)=O)C2    1

Attention now shifts to the item below.
Item `c1ccc2c(c1)sc1ccccc12` : provide normalized growth 0.891

----------
experiment: chemical genetic growth profiling, strain panel (AID 1159580);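 note: tested at 20 µM; growth read once vehicle control cultures reached saturation at 30 °C; 1 = growth at the plate median or of vehicle wells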; settings: S. cerevisiae deletion strains, growth OD, locus YPL241C, strain CIN2
Among all 5,500 compounds or so, about 2,000 (36%) were called active. Roughly 18% stayed inconclusive and do not appear here. No stated cut-off is given here; in the data, active means normalized growth mostly below about 0.91 (no sharp cut-off); inconclusive means no clear call, values can overlap the other calls; inactive means mostly above about 0.92. The list shows a part of the results.
Choose the fitting class; nothing outside true = active, false = inactive is accepted.

Record excerpt, results attached:
CN1C2CCC1CC(OC(c1ccccc1)c1ccccc1)C2 (stereo not drawn)    false
NCCC(=O)NCCc1cnc[nH]1    false
O=C(NNC(=S)Nc1cccc(Cl)c1)C1CC1    true
COC(=O)c1ccc2c(c1)N(C)S(=O)(=O)CC2=O    false
CN1C2CCC1CC(OC(c1ccccc1)c1ccc(Cl)cc1)C2 (stereo not drawn)    false

Please state the recorded outcome for this compound: `O=C(NNC(=S)Nc1cccc(Cl)c1)c1ccncc1` false

How did this test come out for `CCOC(=O)Cc1csc(N=CNO)n1` ? false

Status in this test for OCC(O)CN1CCN(c2ccccc2)CC1 (stereo not drawn) ? false

----------
assay: chemical genetic growth profiling, strain panel (AID 1159580);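 note: tested at 20 µM; growth read once vehicle control cultures reached saturation at 30 °C; 1 = growth at the plate median or of vehicle wells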; conditions: S. cerevisiae deletion strains, growth OD, locus YNR049C, strain mso1, stronger effect = lower value
The campaign covered roughly 5,500 compounds. About 2,000 (36%) were called active. About 18% were inconclusive and are not listed. The list shows a part of the results.
Each item that follows carries a reported normalized growth.
// return a plain number; no unit text

CCC[C@H](N[C@@H](C)C(=O)N1[C@H](C(=O)O)C[C@@H]2CCCC[C@@H]21)C(=O)OCC    1.02
CNCCC(Oc1ccc(C(F)(F)F)cc1)c1ccccc1 (stereo unspecified)    0.987
O=C(/C=C/c1ccc(O)c(O)c1)OCCc1ccccc1    0.944
CN1C2CCC1CC(OC(c1ccccc1)c1ccccc1)C2 (stereo unspecified)    0.984
COc1ccc2c(c1)OC1(O)COc3cc(OC)c(OC)cc3C1=C2 (stereo unspecified)    0.992
O=C(NC(=O)c1ccccc1Cl)Nc1ccc(OC(F)(F)F)cc1    1.03

For the compound `COc1ccc(-c2coc3cc(O)ccc3c2=O)c(O)c1O` , give its measured normalized growth value. 0.982

Specify measured normalized growth for C[C@@H]1CC(Cl)CC[C@H]1C(=O)OC(C)(C)C (stereo partly specified) . 0.971

Return reported normalized growth. Input compound: `O=C1NCC2(CCN(CCc3ccccc3)CC2)O1` 0.987

----------
test: chemical genetic growth profiling, strain panel (AID 1159580);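 note: tested at 20 µM; growth read once vehicle control cultures reached saturation at 30 °C; 1 = growth at the plate median or of vehicle wells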; conditions: S. cerevisiae deletion strains, growth OD, locus YJR043C, strain POL32, stronger effect = lower value
Hit rate of the full screen: of about 5,500 compounds, about 2,000 (36%) were called active. Another 18% or so got no clear call; they are omitted. The list shows a part of the results.
Each entry below lists one item and its recorded normalized growth value.
# output: bare number, no unit

Worked set:
CCCCCCCCCCC[C@@H](C[C@H]1OC(=O)[C@H]1CCCCCC)OC(=O)[C@@H](CC(C)C)NC=O    1.03
COc1cc(CNC(=O)CCCC/C=C/C(C)C)ccc1O    1
O=C(O[C@@H]1Cc2c(O)cc(O)cc2O[C@@H]1c1ccc(O)c(O)c1)c1cc(O)c(O)c(O)c1    0.792
Cc1ccccc1C(OCCN(C)C)c1ccccc1 (stereo unspecified)    0.995
COc1ccc(C(=O)CC(=O)O)c2c1C=CC(C)(C)O2    1.04

Specify reported normalized growth for the compound shown: O=C1CCC(N2C(=O)c3ccccc3C2=O)C(=O)N1 (stereo unspecified) 0.979

Report normalized growth for `CCCOc1ccccc1/C=N\NC(=S)Nc1cccc(F)c1` 1.01

Using the record for `CCCCCCCCC(=O)NCc1ccc(O)c(OC)c1` , state its measured normalized growth. 0.983

Consider the compound Clc1ccc(C(OCCN2CCCCC2)c2ccccc2)cc1 (stereo unspecified) and give its recorded normalized growth. 1.02

Read the entry CN(C)CCOC(c1ccc(Cl)cc1)c1ccccn1 (stereo unspecified) and write its reported normalized growth. 0.968

Give a short answer stating reported normalized growth for `O=C(c1c(F)cccc1F)N1CCN(C(=O)c2c(F)cccc2F)CC1` . 1.02
